test system: SK-MEL-28 human melanoma cell line (B-RAF V600E); test: MTS cell growth assay, SK-MEL-28; format: cell-based; settings: SKMEL28 cells, 72 hours
measured-parameter: pIC50
Note: pIC50 values are expressed as the negative base-10 logarithm of concentration in M.

`O=C(c1ccc(F)cc1)N1CCC(Nc2nccc(-c3c(-c4ccc(F)cc4)nc4sccn34)n2)CC1` yielded pIC50 of 6.17

Memo: `COc1cccc(-c2nc3sccn3c2-c2ccnc(N[C@@H]3CCCN(C(=O)c4ccncc4)C3)n2)c1` , reported pIC50: 6.07

# pIC50 (molecule: `O=S(=O)(c1ccc(Cl)cc1)N1CCC(Nc2nccc(-c3c(-c4cccc(O)c4)nc4sccn34)n2)CC1` ) is 6.42

Noted for `CCNC(=O)N1CCC(Nc2nccc(-c3c(-c4cccc(O)c4)nc4sccn34)n2)CC1` : its pIC50 reads 6.10

The molecule listed as `COc1ccccc1-c1nc2sccn2c1-c1ccnc(N[C@@H]2CCCN(S(=O)(=O)c3ccc(Cl)cc3)C2)n1` has a reported pIC50 of 6.32

----------
target: mutant B-RAF (Homo sapiens, UniProt P15056, V600E); construct: purchased Upstate (Charlottesville, Va.); assay: RAF biochemical assay (MEK-1 phosphorylation, anti-phospho MEK1/2 detection); conditions: read-out: Mutant B-RAF IC50
Sequence (P15056 whole entry V600E): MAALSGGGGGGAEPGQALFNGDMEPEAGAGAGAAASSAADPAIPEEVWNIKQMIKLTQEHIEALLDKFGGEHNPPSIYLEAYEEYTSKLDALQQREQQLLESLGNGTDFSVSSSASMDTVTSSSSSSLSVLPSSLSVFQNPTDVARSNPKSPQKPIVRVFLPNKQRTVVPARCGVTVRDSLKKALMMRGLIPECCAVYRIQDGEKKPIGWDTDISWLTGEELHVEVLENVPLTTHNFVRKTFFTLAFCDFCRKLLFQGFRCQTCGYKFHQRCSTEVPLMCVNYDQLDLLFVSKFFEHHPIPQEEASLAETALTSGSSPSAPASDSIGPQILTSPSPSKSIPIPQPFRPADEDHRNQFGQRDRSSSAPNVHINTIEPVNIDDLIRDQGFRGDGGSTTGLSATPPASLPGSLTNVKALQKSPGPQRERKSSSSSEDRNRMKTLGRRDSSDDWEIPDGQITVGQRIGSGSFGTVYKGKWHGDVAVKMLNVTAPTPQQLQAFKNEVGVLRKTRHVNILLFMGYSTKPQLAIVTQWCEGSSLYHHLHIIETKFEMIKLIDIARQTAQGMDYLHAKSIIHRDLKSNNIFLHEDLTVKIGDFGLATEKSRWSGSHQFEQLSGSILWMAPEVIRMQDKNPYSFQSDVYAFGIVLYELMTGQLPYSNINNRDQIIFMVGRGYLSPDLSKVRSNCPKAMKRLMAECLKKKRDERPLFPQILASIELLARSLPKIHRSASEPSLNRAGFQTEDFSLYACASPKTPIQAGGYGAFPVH
measured-parameter: IC50 (µM)
Dear colleague, please return just the value in µM, with no unit written.

// solved cases for IC50 follow
CCOC(=O)c1ccc(-c2nc3sccn3c2-c2ccnc(N[C@@H]3CCCN(S(=O)(=O)c4ccc(Cl)cc4)C3)n2)cc1OCC :: 1.09
O=C(O)c1ccc(S(=O)(=O)N2CCC(Nc3nccc(-c4c(-c5ccc(F)cc5)nc5occn45)n3)CC2)cc1 :: 1.37
O=S(=O)(c1ccc(F)c(Cl)c1)N1CCC[C@@H](Nc2nccc(-c3c(-c4ccc(F)cc4)nc4occn34)n2)C1 :: 0.963
O=C(c1cccc2cccnc12)N1CCC(Nc2nccc(-c3c(-c4ccc(F)cc4)nc4occn34)n2)CC1 :: 1.57
COc1cccc(-c2nc3sccn3c2-c2ccnc(NC3CCN(S(C)(=O)=O)CC3)n2)c1 :: 4

// IC50 (mutant B-RAF (Homo sapiens, UniProt P15056, V600E)) for `Cn1ccc(S(=O)(=O)N2CCC[C@@H](Nc3nccc(-c4c(-c5cccc(O)c5)nc5sccn45)n3)C2)n1` = 0.001

Item O=C(NC1CCCCO1)N1CCC(Nc2nccc(-c3c(-c4ccc(F)cc4)nc4occn34)n2)CC1 (stereo not shown) was tested on mutant B-RAF (Homo sapiens, UniProt P15056, V600E); the reported IC50 is 0.354

----------
# key: entry, value: inhibition at 10 µM
biological target: mutant B-RAF (Homo sapiens, UniProt P15056, V600E); construct: purchased Upstate (Charlottesville, Va.); assay: RAF biochemical assay (MEK-1 phosphorylation, anti-phospho MEK1/2 detection); settings: @ 10 uM; read-out: Mutant B-RAF % inhibition
# output: bare number, implied unit %

COc1ccc(OC)c(-c2nc3sccn3c2-c2ccnc(N[C@@H]3CCCN(S(=O)(=O)c4ccc(Cl)cc4)C3)n2)c1 :: 69

inhibition at 10 µM measured on `O=[N+]([O-])c1cccc(-c2nc3sccn3c2-c2ccnc(N[C@@H]3CCCN(S(=O)(=O)c4ccc(Cl)cc4)C3)n2)c1` = 55

Noted for `O=C(Nc1ccc(F)c(F)c1)N1CCC[C@@H](Nc2nccc(-c3c(-c4ccc(F)cc4)nc4occn34)n2)C1` : its inhibition at 10 µM reads 37
